// provenance: the supplement of paper PMC13380429

Tested on: Vero E6 infected with SARS-CoV-2
Test: inhibition of SARS-CoV-2 cytopathic effect; higher = more antiviral protection, active = above 15
Details: 833.33 nM; 48 h
observedProperty: inhibition of SARS-CoV-2 cytopathic effect (%)

Cc1c(C2CCN(CCc3ccccc3)CC2)noc1-c1ccc(Cl)cc1 | 4.32
CCOc1ccc(-n2c([C@@H](C)N(Cc3cccnc3)C(=O)Cc3ccc(OC(F)(F)F)cc3)nc3ncccc3c2=O)cc1 (racemic) | 1.88
CN(C)CCc1ccc(O)cc1 | -2.27
CC(C)(C)c1ccc(S(=O)(=O)Nc2ccc(Cl)cc2C(=O)c2cc[n+]([O-])cc2)cc1 | 4.3
C[C@@H]1C/C=C/C=C/C=C/C=C/[C@H](O[C@@H]2O[C@H](C)[C@@H](O)[C@H](N)[C@@H]2O)C[C@@H]2O[C@](O)(C[C@@H](O)C[C@H]3O[C@@H]3/C=C/C(=O)O1)C[C@H](O)[C@H]2C(=O)O | -6.12
Cc1c(-c2ccccc2)oc2c(C(=O)OCCN3CCCCC3)cccc2c1=O [flavoxate] | -0.65
CC1(C)C(/C=C/C=C/C=C/C=C2\N(CCCCS(=O)(=O)O)c3ccc4ccccc4c3C2(C)C)=[N+](CCCCS(=O)(=O)[O-])c2ccc3ccccc3c21 | 1.22
